tested target: SHMT1 (Homo sapiens)
Sequence (P34896 1-483): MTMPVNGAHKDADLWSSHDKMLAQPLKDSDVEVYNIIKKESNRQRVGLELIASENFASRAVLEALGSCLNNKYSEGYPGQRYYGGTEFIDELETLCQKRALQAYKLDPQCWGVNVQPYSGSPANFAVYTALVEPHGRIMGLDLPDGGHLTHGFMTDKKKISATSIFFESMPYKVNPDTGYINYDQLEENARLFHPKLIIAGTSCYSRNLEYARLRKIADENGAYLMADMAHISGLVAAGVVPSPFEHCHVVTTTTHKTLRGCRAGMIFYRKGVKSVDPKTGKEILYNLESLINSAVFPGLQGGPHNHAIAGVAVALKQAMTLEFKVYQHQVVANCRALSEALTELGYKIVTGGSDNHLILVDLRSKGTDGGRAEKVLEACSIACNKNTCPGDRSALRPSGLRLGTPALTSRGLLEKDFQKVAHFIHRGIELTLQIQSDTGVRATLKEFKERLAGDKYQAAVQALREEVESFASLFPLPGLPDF
test method notes: Spectrophotometric quinonoid-intermediate competitive binding assay on purified recombinant SHMT1
condition notes: purified SHMT1 5.5 μM, glycine 3.0 mM, 20 μM H4PteGlu, read-out: estimated inhibition constants (IC50)

[
  {
    "compound": "CCC1(c2ccc(F)cc2)C(C#N)=C(N)Oc2[nH]nc(C)c21 (stereo not shown) [compound 2.2]",
    "IC50 [µM]": 154
  }
]
